tested on: PCTK3; construct: gene CDK18; conditions: concentration: 1 μM, replicates: in singlicate; n = 1;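 further: KINOMEscan kinase panel screen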
Label YES when %Inh is strictly below 6%; at or above that, label NO.

The following compounds have reported results that may help.
INSERT INTO measurements (compound, assigned_label) VALUES
  ('Cc1ccc(-c2ccc3occ(-c4ccc(S(C)=O)cc4)c3c2)nn1 (stereo not drawn)', 'YES'),
  ('Cl.O=C(Nc1ccc(Oc2ccc3[nH]c(NC(=O)c4ccco4)nc3c2)cc1)Nc1cc(C(F)(F)F)ccc1F', 'NO'),
  ('COc1cc(Nc2ccnc3cc(-c4ccncc4)ccc23)cc(OC)c1OC.Cl', 'YES'),
  ('O=C(Nc1c(F)cccc1F)c1cc(C(=O)c2ccccc2F)c[nH]1', 'YES'),
  ('O=C1NC(=O)C(c2ccccc2Cl)=C1Nc1cccc(Cl)c1', 'NO'),
  ('Cn1cc(-c2ccc3c(c2)CCN3C(=O)Cc2cc(F)cc(C(F)(F)F)c2)c2c(N)ncnc21', 'NO'),
  ('CN(c1ccc(NC(=O)Nc2cccc(Cl)c2)cc1)c1ccnc(N)n1.Cl', 'NO'),
  ('O=C(O)C(F)(F)F.O=c1[nH]ccc2nc(N[C@@H]3CCNC3)nc(Nc3ccc4c(c3)S(=O)(=O)CC4)c12', 'NO'),
  ('Cc1ccc(Nc2ccnc(Nc3ccc(C)c(F)c3)n2)cc1O.Cl', 'NO'),
  ('CC(C)NCC(Cc1ccccc1)NC(=O)c1cc(Br)c(-c2ccnc3[nH]ccc23)s1.Cl.Cl (stereo not drawn)', 'YES');

Problem: Identify whether the compound Cl.Cl.NC(CNC(=O)c1cc(Br)c(-c2ccnc3[nH]ccc23)s1)c1ccccc1 (stereo not drawn) records %Inh below 6%.
Solution: YES

Problem: Identify whether the compound CN(c1ccc(NC(=O)N2CCN(CCCN3CCOCC3)CC2)cc1)c1ccnc(Nc2ccc(CS(C)(=O)=O)cc2)n1.Cl records %Inh below 6%.
Solution: YES

Problem: Identify whether the compound Cc1ccccc1CC(=O)N1CCc2cc(-c3cn(C)c4ncnc(N)c34)ccc21 records %Inh below 6%.
Solution: YES

Problem: Identify whether the compound Cc1ccc(C)c(NC(=O)Nc2ccc(C)c(-c3ccc(C(=O)Nc4ccncc4)cc3)c2)c1 records %Inh below 6%.
Solution: NO

Problem: Identify whether the compound CCNc1nccc(-c2c(-c3ccc(F)cc3)ncn2C2CCN(C)CC2)n1 records %Inh below 6%.
Solution: YES

----------
test system: CLK4; conditions: concentration: 1 μM, replicates: in singlicate; n = 1
Entries get a class label from measured %Inh. See ranges: low (below 6%), intermediate (6% to below 20%), high (20% or more)

The following compounds have reported results that may help.
INSERT INTO measurements (compound, assigned_label) VALUES
  ('CN(C)c1ncnc2nc[nH]c12 [SKF-31736]', 'low'),
  ('Cc1cccc(Nc2nc(NCCN)ncc2C(N)=O)c1 [GSK1292139]', 'low'),
  ('Cc1ccc(NC(=O)c2cccc(N3CCCCC3)c2)cc1-c1ccc(C(=O)NCC2CC2)cc1 [GSK1917008]', 'high');

Problem: // return the class label for O=C(O)C(F)(F)F.O=c1[nH]ccc2nc(N[C@@H]3CCNC3)nc(Nc3cc(Cl)cc(Cl)c3)c12 [GSK2188764]
Solution: high

Problem: // return the class label for Cn1cc(-c2ccc3c(c2)CCN3C(=O)Cc2cc(F)cc(C(F)(F)F)c2)c2c(N)ncnc21 [GSK2635225]
Solution: intermediate

Problem: // return the class label for CS(=O)(=O)c1cccc(CNc2nc(Nc3ccc4c(c3)CCC(=O)N4)ncc2C(F)(F)F)c1
Solution: high

Problem: // return the class label for Cl.Cl.NCC(NC(=O)c1cc(-c2cccnc2)c(-c2ccnc3[nH]ccc23)s1)c1ccccc1 (stereo not drawn) [GSK1323434]
Solution: high

Problem: // return the class label for N#CC1(c2cccc(C(=O)Nc3cccc(Oc4ccc5nc(NC(=O)C6CC6)sc5n4)c3)c2)CC1
Solution: intermediate

Problem: // return the class label for Cc1ccc(Nc2ccnc(Nc3ccc(C)c(F)c3)n2)cc1O.Cl [GW582868]
Solution: intermediate

Problem: // return the class label for Cc1ccc(O)cc1Nc1ccnc2cc(-c3ccc(CN4CCCCC4)o3)ccc12 [GW557777]
Solution: low

Problem: // return the class label for Cc1ccc(NC(=O)c2ccc(Cl)c(Cl)c2)cc1-c1ccc(C(=O)Nc2ccncc2)cc1 [GSK1398460]
Solution: intermediate

Problem: // return the class label for CN(c1ccc2c(c1)nc(NCc1ccccc1)n2C)c1ccnc(Nc2ccc(CS(C)(=O)=O)cc2)n1.Cl [GW811603]
Solution: low

Problem: // return the class label for Nc1cccc(-c2ccc3c(N)n[nH]c3c2)c1 [GSK2193613]
Solution: high

Problem: // return the class label for Fc1cc(Cl)ccc1Nc1ccnc2cc(-c3ccc(CN4CCOCC4)o3)ccc12 [GW560109]
Solution: intermediate

Problem: // return the class label for Cc1ccc(-c2ccc3occ(-c4ccc(S(C)=O)cc4)c3c2)nn1 (stereo not drawn)
Solution: high

Problem: // return the class label for CN(c1ccc(F)c(NC(=O)c2cccc(OC(C)(C)C#N)c2Cl)c1)c1ccc2nc(NC(=O)C3CC3)sc2n1
Solution: low
